# Test system: pulmonary fibrosis
# EXPERIMENT DESCRIPTION: Pulmonary toxicity (pulmonary fibrosis) in mice
# TEST SETTINGS: ICR mice, 5 mg/kg i.p. once a day for 10 days, 5 weeks observation
MEASUREMENT LABEL: Incidence: Number of mice with pulmonary fibrosis (%)

COMPOUND	ASSAY RESULT
CCCCCCCCNC(=O)C(N)CNC(CC(N)=O)c1nc(N)c(C)c(C(=O)NC(C(=O)NC(C)C(O)C(C)C(=O)NC(C(=O)NCCc2nc(-c3nc(C(=O)NCCC[N+](C)(CCCN(Cc4ccccc4)Cc4ccccc4)Cc4ccccc4)cs3)cs2)C(C)O)C(OC2OC(CO)C(O)C(O)C2OC2OC(CO)C(O)C(OC(N)=O)C2O)c2cnc[nH]2)n1 (stereo not shown) [Compound 48]	0
Cc1c(N)nc(C(CC(N)=O)NCC(N)C(=O)NCCCNC(C)c2ccccc2)nc1C(=O)NC(C(=O)NC(C)C(O)C(C)C(=O)NC(C(=O)NCCc1nc(-c2nc(C(=O)NCCCN(C)CCCNCC3CCCCCCC3)cs2)cs1)C(C)O)C(OC1OC(CO)C(O)C(O)C1OC1OC(CO)C(O)C(OC(N)=O)C1O)c1cnc[nH]1 (stereo not shown) [Compound 60]	0
Cc1c(N)nc(C(CC(N)=O)NCC(N)C(=O)NCCCNC(C)c2ccccc2)nc1C(=O)NC(C(=O)NC(C)C(O)C(C)C(=O)NC(C(=O)NCCc1nc(-c2nc(C(=O)NCCCN(C)CCCNCc3ccc(Cl)cc3)cs2)cs1)C(C)O)C(OC1OC(CO)C(O)C(O)C1OC1OC(CO)C(O)C(OC(N)=O)C1O)c1cnc[nH]1 (stereo not shown) [Compound 39]	20
CCCCNCCCN(C)CCCNC(=O)c1csc(-c2csc(CCNC(=O)C(NC(=O)C(C)C(O)C(C)NC(=O)C(NC(=O)c3nc(C(CC(N)=O)NCC(N)C(=O)NC(C)C)nc(N)c3C)C(OC3OC(CO)C(O)C(O)C3OC3OC(CO)C(O)C(OC(N)=O)C3O)c3cnc[nH]3)C(C)O)n2)n1 (stereo not shown) [Compound 37]	33
Cc1c(N)nc(C(CC(N)=O)NCC(N)C(=O)NCc2ccccc2)nc1C(=O)NC(C(=O)NC(C)C(O)C(C)C(=O)NC(C(=O)NCCc1nc(-c2nc(C(=O)NCCC[N+](C)(CCCN(Cc3ccccc3)Cc3ccccc3)Cc3ccccc3)cs2)cs1)C(C)O)C(OC1OC(CO)C(O)C(O)C1OC1OC(CO)C(O)C(OC(N)=O)C1O)c1cnc[nH]1 (stereo not shown) [Compound 51]	0
CCCCN(CCCC)CCCNC(=O)C(N)CNC(CC(N)=O)c1nc(N)c(C)c(C(=O)NC(C(=O)NC(C)C(O)C(C)C(=O)NC(C(=O)NCCc2nc(-c3nc(C(=O)NCCCNC(C)c4ccccc4)cs3)cs2)C(C)O)C(OC2OC(CO)C(O)C(O)C2OC2OC(CO)C(O)C(OC(N)=O)C2O)c2cnc[nH]2)n1 (stereo not shown) [Compound 34]	0
CCCCNCCCN(C)CCCNC(=O)c1csc(-c2csc(CCNC(=O)C(NC(=O)C(C)C(O)C(C)NC(=O)C(NC(=O)c3nc(C(CC(N)=O)NCC(N)C(=O)NCCCN(C)CCCNCCCC)nc(N)c3C)C(OC3OC(CO)C(O)C(O)C3OC3OC(CO)C(O)C(OC(N)=O)C3O)c3cnc[nH]3)C(C)O)n2)n1 (stereo not shown) [Compound 38]	71
CCCCCCCCNC(=O)C(N)CNC(CC(N)=O)c1nc(N)c(C)c(C(=O)NC(C(=O)NC(C)C(O)C(C)C(=O)NC(C(=O)NCCc2nc(-c3nc(C(=O)NCCCN(C)CCCN(Cc4ccc(OCc5ccccc5)c(OCc5ccccc5)c4)Cc4ccc(OCc5ccccc5)c(OCc5ccccc5)c4)cs3)cs2)C(C)O)C(OC2OC(CO)C(O)C(O)C2OC2OC(CO)C(O)C(OC(N)=O)C2O)c2cnc[nH]2)n1 (stereo not shown) [Compound 65]	0
Cc1c(N)nc(C(CC(N)=O)NCC(N)C(=O)NCCCNC(C)c2ccccc2)nc1C(=O)NC(C(=O)NC(C)C(O)C(C)C(=O)NC(C(=O)NCCc1nc(-c2nc(C(=O)NCCCN(C)CCCN(Cc3ccc(OCc4ccccc4)c(OCc4ccccc4)c3)Cc3ccc(OCc4ccccc4)c(OCc4ccccc4)c3)cs2)cs1)C(C)O)C(OC1OC(CO)C(O)C(O)C1OC1OC(CO)C(O)C(OC(N)=O)C1O)c1cnc[nH]1 (stereo not shown) [Compound 64]	0
Cc1c(N)nc(C(CC(N)=O)NCC(N)C(=O)NC(C)C)nc1C(=O)NC(C(=O)NC(C)C(O)C(C)C(=O)NC(C(=O)NCCc1nc(-c2nc(C(=O)NCCCNC(C)c3ccccc3)cs2)cs1)C(C)O)C(OC1OC(CO)C(O)C(O)C1OC1OC(CO)C(O)C(OC(N)=O)C1O)c1cnc[nH]1 (stereo not shown) [Compound 21]	38
Cc1c(N)nc(C(CC(N)=O)NCC(N)C(=O)NCCCNC(C)c2ccccc2)nc1C(=O)NC(C(=O)NC(C)C(O)C(C)C(=O)NC(C(=O)NCCc1nc(-c2nc(C(=O)NCCCNC(C)c3ccccc3)cs2)cs1)C(C)O)C(OC1OC(CO)C(O)C(O)C1OC1OC(CO)C(O)C(OC(N)=O)C1O)c1cnc[nH]1 (stereo not shown) [Compound 22]	13
CCCCCCCCNC(=O)C(N)CNC(CC(N)=O)c1nc(N)c(C)c(C(=O)NC(C(=O)NC(C)C(O)C(C)C(=O)NC(C(=O)NCCc2nc(-c3nc(C(=O)NCCCN(C)CCCNCc4ccc(C#N)cc4)cs3)cs2)C(C)O)C(OC2OC(CO)C(O)C(O)C2OC2OC(CO)C(O)C(OC(N)=O)C2O)c2cnc[nH]2)n1 (stereo not shown) [Compound 62]	0
Cc1c(N)nc(C(CC(N)=O)NCC(N)C(=O)NCCN2CCNCC2)nc1C(=O)NC(C(=O)NC(C)C(O)C(C)C(=O)NC(C(=O)NCCc1nc(-c2nc(C(=O)NCCCNC(C)c3ccccc3)cs2)cs1)C(C)O)C(OC1OC(CO)C(O)C(O)C1OC1OC(CO)C(O)C(OC(N)=O)C1O)c1cnc[nH]1 (stereo not shown) [Compound 33]	56
